Source listed as ChEMBL document CHEMBL4507289.

Molecular target: D(4) dopamine receptor (Homo sapiens, UniProt P21917)
Sequence (P21917 whole entry): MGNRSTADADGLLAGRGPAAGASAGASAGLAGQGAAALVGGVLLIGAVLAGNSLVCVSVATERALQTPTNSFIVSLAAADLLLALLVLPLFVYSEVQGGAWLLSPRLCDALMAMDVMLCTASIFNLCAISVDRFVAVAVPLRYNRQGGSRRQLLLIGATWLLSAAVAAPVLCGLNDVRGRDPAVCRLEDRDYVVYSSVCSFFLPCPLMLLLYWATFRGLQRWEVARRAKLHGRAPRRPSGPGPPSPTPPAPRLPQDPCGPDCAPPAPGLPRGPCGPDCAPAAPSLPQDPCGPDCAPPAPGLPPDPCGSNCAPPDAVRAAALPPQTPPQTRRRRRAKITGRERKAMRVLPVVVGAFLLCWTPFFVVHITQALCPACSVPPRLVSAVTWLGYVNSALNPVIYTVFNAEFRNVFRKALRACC
MEASUREMENT_LABEL: pKi
Answers are plain numbers, as −log10 of the molar value.

Request: // fetch pKi given entry COc1cc(-c2cn([C@H]3CCc4ccccc4N(CC(F)(F)F)C3=O)nn2)ccc1-n1ccc(C)n1
Result: 5.31

----------
Target: Alpha-1A adrenergic receptor (Homo sapiens)
Sequence (P35348 whole entry): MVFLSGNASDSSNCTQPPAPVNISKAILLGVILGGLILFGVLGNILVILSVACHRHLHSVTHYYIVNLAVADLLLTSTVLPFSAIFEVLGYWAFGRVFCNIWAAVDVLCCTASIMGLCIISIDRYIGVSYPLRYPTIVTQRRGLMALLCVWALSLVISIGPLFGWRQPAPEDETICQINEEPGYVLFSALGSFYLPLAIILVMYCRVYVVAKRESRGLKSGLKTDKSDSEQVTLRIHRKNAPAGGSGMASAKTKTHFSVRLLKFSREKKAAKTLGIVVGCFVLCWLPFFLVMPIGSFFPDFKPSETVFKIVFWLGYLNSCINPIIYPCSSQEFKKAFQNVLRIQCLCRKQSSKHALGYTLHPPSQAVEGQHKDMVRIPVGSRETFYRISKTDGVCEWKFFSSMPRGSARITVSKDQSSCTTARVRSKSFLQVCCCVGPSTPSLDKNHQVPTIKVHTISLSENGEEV
MEASUREMENT_LABEL: Ki (µM)
Numbers only, in µM.

Request: Hello, please tell me recorded Ki for this one: COc1cc(-c2cn([C@H]3CCc4ccccc4N(CC(F)(F)F)C3=O)nn2)ccc1-n1ccc(C)n1
Result: 1.39

----------
Target: Sodium-dependent serotonin transporter (Homo sapiens, UniProt P31645)
Sequence (P31645 whole entry): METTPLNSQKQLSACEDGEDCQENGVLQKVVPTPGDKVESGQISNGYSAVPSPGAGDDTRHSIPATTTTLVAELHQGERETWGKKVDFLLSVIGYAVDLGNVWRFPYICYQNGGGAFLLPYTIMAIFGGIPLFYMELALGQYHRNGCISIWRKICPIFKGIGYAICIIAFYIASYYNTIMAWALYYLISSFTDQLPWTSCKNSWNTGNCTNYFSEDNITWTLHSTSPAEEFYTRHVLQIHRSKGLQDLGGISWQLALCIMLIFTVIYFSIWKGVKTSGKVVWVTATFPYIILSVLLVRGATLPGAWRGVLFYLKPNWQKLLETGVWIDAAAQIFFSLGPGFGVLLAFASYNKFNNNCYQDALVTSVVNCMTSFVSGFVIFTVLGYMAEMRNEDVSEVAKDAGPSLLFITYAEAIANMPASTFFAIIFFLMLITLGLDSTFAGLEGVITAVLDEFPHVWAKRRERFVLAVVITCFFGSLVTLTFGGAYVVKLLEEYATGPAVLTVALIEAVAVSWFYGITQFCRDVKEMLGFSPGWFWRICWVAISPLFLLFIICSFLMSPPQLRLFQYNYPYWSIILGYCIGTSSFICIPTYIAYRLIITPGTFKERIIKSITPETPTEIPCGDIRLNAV
Assay: GPCRScan assay: inhibition of SERT
Design: radioligand conc. used [nm] 1.5 – 2.0, parental cells stable HEK
Details: read-out: Ki
MEASUREMENT_LABEL: pKi
One number for each entry, as −log10 of the molar value.

Batch request: pKi per item, same order as input.
1. COc1cc(-c2cn([C@H]3CCc4c(F)cccc4N(CC(F)(F)F)C3=O)nn2)ccc1-n1cnc(C)c1
2. COc1cc(-c2cn([C@H]3CCc4ccccc4N(CC(F)(F)F)C3=O)nn2)ccc1-n1ccc(C)n1

Result:
1: 7.62; 2: 6.41
